Values were extracted from patent US20090311217A1.

TESTED TARGET: PI3K-alpha (Homo sapiens)
Sequence (P42336 whole entry, species assumed): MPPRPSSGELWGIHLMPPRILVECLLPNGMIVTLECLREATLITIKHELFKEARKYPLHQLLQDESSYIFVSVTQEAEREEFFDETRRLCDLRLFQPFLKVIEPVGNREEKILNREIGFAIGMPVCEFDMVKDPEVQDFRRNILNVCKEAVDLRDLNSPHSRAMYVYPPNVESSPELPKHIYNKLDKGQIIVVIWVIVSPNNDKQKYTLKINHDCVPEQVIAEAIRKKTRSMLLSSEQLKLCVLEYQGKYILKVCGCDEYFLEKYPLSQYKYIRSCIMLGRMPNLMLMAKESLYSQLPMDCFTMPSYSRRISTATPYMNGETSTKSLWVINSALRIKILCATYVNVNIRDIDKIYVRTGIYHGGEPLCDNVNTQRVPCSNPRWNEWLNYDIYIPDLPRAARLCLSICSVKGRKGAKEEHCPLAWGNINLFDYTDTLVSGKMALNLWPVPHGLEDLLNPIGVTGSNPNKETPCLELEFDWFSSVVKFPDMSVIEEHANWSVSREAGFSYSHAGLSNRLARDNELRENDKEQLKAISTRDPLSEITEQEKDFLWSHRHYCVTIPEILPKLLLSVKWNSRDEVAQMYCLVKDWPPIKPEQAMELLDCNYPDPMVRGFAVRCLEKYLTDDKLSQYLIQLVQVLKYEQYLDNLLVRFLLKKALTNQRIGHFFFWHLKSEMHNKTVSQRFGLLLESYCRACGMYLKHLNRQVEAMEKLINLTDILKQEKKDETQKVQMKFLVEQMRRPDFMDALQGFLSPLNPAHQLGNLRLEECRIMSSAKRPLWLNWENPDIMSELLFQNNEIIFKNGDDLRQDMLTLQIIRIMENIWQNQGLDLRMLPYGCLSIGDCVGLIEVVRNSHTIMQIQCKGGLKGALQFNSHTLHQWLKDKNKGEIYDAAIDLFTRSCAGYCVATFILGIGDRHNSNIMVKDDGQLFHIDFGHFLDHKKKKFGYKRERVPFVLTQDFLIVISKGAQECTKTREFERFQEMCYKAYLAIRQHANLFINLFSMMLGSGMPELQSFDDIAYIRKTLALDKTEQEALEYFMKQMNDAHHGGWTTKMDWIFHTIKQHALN
Sequence (P27986 whole entry partner, species assumed): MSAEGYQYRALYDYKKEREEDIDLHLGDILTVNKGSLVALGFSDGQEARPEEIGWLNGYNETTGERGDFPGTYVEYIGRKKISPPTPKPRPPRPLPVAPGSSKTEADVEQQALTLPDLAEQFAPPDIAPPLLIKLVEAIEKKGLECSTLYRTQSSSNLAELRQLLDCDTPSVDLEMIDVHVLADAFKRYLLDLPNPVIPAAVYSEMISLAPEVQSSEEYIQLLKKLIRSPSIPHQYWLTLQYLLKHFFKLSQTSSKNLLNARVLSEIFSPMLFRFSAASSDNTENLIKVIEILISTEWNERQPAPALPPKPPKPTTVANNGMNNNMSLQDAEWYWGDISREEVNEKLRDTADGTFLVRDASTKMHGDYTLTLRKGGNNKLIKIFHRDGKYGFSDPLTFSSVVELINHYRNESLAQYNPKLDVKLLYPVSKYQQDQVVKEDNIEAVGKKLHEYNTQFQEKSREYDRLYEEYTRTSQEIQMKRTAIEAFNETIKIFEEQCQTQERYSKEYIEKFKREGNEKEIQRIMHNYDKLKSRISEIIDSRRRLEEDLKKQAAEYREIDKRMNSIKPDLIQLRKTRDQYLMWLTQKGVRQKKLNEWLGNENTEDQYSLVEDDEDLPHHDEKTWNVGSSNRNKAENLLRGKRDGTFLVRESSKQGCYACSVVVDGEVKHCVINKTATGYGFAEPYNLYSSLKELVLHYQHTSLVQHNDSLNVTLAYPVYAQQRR
ASSAY REMARKS: PI3K-alpha fluorescence polarization assay
Assay type: biochemical
RUN PARAMETERS: read-out: PI3Kα Avg. IC50
pIC50: −log10 of the molar value.
PROPERTY NAME: pIC50

CC(C)Oc1ccc(-c2c(C=C3Oc4cc(O)cc(O)c4C3=O)c3ccccc3n2C)cc1; 5.70
CNC(=O)Nc1ccc2c(c1)C(=O)/C(=C/c1c(-c3c(C)nn(C)c3C)n(CCN3CCN(C)CC3)c3ccc(OC)cc13)O2; 8.60
O=C1C(=Cc2c(-c3ccccc3)n(CCN3CCOCC3)c3ccccc23)Oc2cc(O)cc(O)c21; 5.61
COc1ccc2c(c1)c(/C=C1\Oc3ccc(NC(N)=O)cc3C1=O)cn2CCN1CCN(C)CC1; 6.72
COc1ccc2[nH]cc(C=C3Oc4cc(O)cc(Br)c4C3=O)c2c1; 6.92
Cn1c(-c2cccc(F)c2)c(C=C2Oc3cc(O)cc(O)c3C2=O)c2ccccc21; 5.96
CNC(=O)Nc1ccc2c(c1)C(=O)/C(=C/c1c[nH]c3c(CN4CCOCC4)cc(OC)cc13)O2; 5.08

----------
TESTED TARGET: PI3K-gamma (Homo sapiens)
Sequence (P48736 whole entry, species assumed): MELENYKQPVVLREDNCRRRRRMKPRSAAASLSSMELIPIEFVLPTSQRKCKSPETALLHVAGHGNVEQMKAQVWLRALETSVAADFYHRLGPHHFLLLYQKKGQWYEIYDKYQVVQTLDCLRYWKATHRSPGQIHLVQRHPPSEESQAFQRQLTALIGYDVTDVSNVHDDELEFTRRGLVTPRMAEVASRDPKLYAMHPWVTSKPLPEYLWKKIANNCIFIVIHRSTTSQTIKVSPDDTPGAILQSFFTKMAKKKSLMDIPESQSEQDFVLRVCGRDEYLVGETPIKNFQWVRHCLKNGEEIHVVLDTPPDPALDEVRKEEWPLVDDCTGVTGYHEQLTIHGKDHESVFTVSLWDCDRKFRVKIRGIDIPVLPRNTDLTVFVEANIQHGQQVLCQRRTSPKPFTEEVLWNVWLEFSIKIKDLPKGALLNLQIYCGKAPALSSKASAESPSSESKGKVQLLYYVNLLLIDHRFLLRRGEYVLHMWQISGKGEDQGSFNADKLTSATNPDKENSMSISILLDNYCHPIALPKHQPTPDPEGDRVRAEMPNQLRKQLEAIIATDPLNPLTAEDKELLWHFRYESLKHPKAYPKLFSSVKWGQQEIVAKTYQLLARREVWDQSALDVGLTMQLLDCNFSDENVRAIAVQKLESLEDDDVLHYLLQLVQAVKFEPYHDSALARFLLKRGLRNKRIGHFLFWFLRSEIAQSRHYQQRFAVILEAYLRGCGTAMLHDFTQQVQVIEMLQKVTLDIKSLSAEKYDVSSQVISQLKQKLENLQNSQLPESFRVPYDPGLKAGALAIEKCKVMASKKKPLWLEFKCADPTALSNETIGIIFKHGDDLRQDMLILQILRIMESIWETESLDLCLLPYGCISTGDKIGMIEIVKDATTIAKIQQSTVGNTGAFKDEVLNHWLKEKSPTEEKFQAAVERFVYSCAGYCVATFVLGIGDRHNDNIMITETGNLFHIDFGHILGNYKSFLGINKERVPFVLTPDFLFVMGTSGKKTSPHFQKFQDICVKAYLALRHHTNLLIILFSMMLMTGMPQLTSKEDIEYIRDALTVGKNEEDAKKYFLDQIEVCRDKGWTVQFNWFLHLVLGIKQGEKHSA
ASSAY REMARKS: PI3K-gamma fluorescence polarization assay
Format: biochemical
RUN PARAMETERS: PI3Kγ Avg. IC50
pIC50: −log10 of the molar value.
PROPERTY NAME: pIC50

CCn1c(C)c(/C=C2\Oc3ccc(NC(=O)Nc4ccc(N(C)CCCN(C)C)cc4)cc3C2=O)c2cc(OC)ccc21 [Compound 653]; 7.68
COc1ccc2c(c1)c(C=C1Oc3cc(O)cc(O)c3C1=O)c(C)n2CCCN1CCN(CCO)CC1 [Example 103]; 6.96
COc1ccc2c(c1)c(/C=C1\Oc3cc(O)cc(O)c3C1=O)c(C)n2CCN1CCC(O)C1 (stereo not shown) [Example 327]; 7.41
COc1ccc2[nH]cc(/C=C3\Oc4c(ccc(O)c4O)C3=O)c2c1 [Example 62]; 5.42
COc1ccc2c(c1)c(/C=C1\Oc3cc(O)ccc3C1=O)c(C)n2CCN1CCCCC1 [Example 454]; 6.29
COc1ccc2c(c1)c(/C=C1\Oc3ccc(NC(=O)Nc4cccnc4)cc3C1=O)c(C)n2CCN1CCN(C)CC1 [Compound 617]; 6.61
CN(C)Cc1ccc(-c2ccc(-c3cccc4c3c(/C=C3\Oc5cc(O)cc(O)c5C3=O)cn4C)cc2)cc1 [Example 301]; 5.64
CCc1cc(O)cc2c1C(=O)C(=Cc1c[nH]c3ccc(OC)cc13)O2 [Compound 506]; 5.82
COc1ccc2c(c1)c(C=C1Oc3c(ccc(O)c3O)C1=O)c(C)n2CCCCCl [Example 122]; 5.82
CNC(=O)Nc1ccc2c(c1)C(=O)/C(=C/c1c(-c3nc(C4CC4)no3)[nH]c3ccc(OC)cc13)O2 [Compound 592]; 5.05
COc1ccc2c(c1)c(/C=C1\Oc3cc(O)c(Br)cc3C1=O)c(C)n2CCN1CCN(C)CC1 [Example 349]; 5.25
COc1cc(F)c2[nH]c(-c3c(C)nn(C)c3C)c(/C=C3\Oc4ccc(NC(=O)NCCN(C)C)cc4C3=O)c2c1 [Compound 716]; 8.44
CNC(=O)Nc1ccc2c(c1)C(=O)/C(=C/c1c(-c3c(C)nn(C)c3C)[nH]c3ccc(OC)cc13)O2 [Compound 627]; 8.33
COc1ccc2c(c1)c(/C=C1\Oc3ccc(NC(=O)NCCO)cc3C1=O)cn2CCCN(C)C [Compound 554]; 5.28
COc1ccc2c(c1)c(/C=C1\Oc3cc(O)cc(O)c3C1=O)c(C)n2CC(=O)N(C)C [Example 322]; 6.75
Cn1cc(/C=C2\Oc3cc(O)cc(O)c3C2=O)c2c(-c3ccccc3F)cccc21 [Example 366]; 5.41
COc1ccc2c(c1)c(/C=C1\Oc3cc(O)cc(O)c3C1=O)cn2CCN1CCN(C)CC1 [Example 308]; 5.99
Cn1cc(/C=C2\Oc3cc(O)cc(O)c3C2=O)c2c(-c3cccc(C#N)c3)cccc21 [Example 367]; 5.27
CNC(=O)Nc1ccc2c(c1)C(=O)/C(=C/c1c(CN3CCN(C)CC3)[nH]c3ccc(OC)cc13)O2 [Compound 615]; 6.86
COc1ccc2[nH]c(-c3c(C)nn(C)c3C)c(/C=C3\Oc4ccc(NC(=O)Nc5ccc(C(=O)N6CCC(N(C)C)C6)cc5)cc4C3=O)c2c1 (stereo not shown) [Compound 697]; 8.85
COc1ccc2c(c1)c(/C=C1\Oc3cc(O)ccc3C1=O)c(C1CC1)n2CCCN(C)C [Example 462]; 5.98
